Kindly state Growth Rate for each of the entries shown.
# Tested on: Fibroblast
# test: Incucyte cell viability with human fibroblast; also: unitless GR value; below 1 slowed growth and below 0 cell loss
# Format: toxicity, cell-based
# particulars: 24 h, 10 µM, compound concentration 10 uM, replicate number 1
Lab note: jot the number down without any unit.

Value of measured Growth Rate for the entry `Cc1cc(Nc2ncc(Cl)c(Nc3ccccc3S(=O)(=O)C(C)C)n2)c(OC(C)C)cc1C1CCNCC1` : -0.63

The molecule `COc1cc2c(NC3CCN(C(C)C)CC3)nc(C3CCCCC3)nc2cc1OCCCN1CCCC1` showed Growth Rate equal to -0.35

Memo: `CC1(C)CCN(C(=O)C2CN(c3c4c(nc5ccnn35)CCNCC4)C2)C1.O=C(O)C(F)(F)F` , reported Growth Rate: 0.98

Growth Rate in this record for `Cc1ccc(S(=O)(=O)O)cc1.Cn1cc(Nc2nccc(N3CC4CCC(C3)N4C(=O)[C@@H]3CC3(F)F)n2)cn1` : 1

For reference, reported Growth Rate for `Cc1cccc(CC(=O)N2CCc3c2ccc(-c2cn(C)c4ncnc(N)c24)c3F)n1` stands at 0.52

For reference, reported Growth Rate for `Cc1[nH]c2c(N3CCCCC3)c(-c3ccccc3)nn2c(=O)c1-c1ccc(O)cc1` stands at 0.64

What the record says about COc1ccc([C@@H]2Sc3ccccc3N(CCN(C)C)C(=O)[C@@H]2OC(C)=O)cc1.Cl [DILTIAZEM HYDROCHLORIDE] : Growth Rate is 0.57

// Growth Rate lookup, molecule = `CC(C)(O)c1cn(-c2ccc(-c3cccc(S(C)(=O)=O)c3)cc2)c(C(C)(C)c2ccccc2Cl)n1` , result: 0.75

The value of Growth Rate measured for the molecule `CC[C@H](Nc1ncnc2[nH]cnc12)c1nc2cccc(F)c2c(=O)n1-c1ccccc1` turned out to be 0.92

Entry `O=C(NC1CCNCC1)c1n[nH]cc1NC(=O)c1c(Cl)cccc1Cl` ; Growth Rate = 0.08

Lab note: `Cc1noc(C)c1-c1cnc2c(-c3ccc(C(=O)O)cc3)cn([C@@H](C)c3ccccn3)c2c1` gave Growth Rate of -0.1

# Growth Rate of `O=C(CCCCCCc1ccccc1)c1ncc(-c2ccccn2)o1` = 0.93

For reference, reported Growth Rate for `CCOC(=O)CS(=O)(=O)c1ccc([C@@H](CO)NC(=O)c2cc3c(Cl)c(Cl)c(C)cc3n2C)cc1` stands at -0.81

Data point: `CN(C)CCCNc1ccnc(Nc2cccc(Cl)c2)n1` ; Growth Rate = 0.56

The reported Growth Rate of the molecule `CCc1ccc(N(CC(C)C)S(=O)(=O)c2ccc(OCC3CCOCC3)c(CO)c2)cc1` was 0.91

// Growth Rate lookup, molecule = `COc1cc(-c2nn([C@H]3CC[C@H](N4CCN(C(C)=O)CC4)CC3)c3ncnc(N)c23)ccc1NC(=O)c1cc2ccccc2n1C` , result: -0.45

For this molecule ( `CC1(C)Cc2nc(C3CCCC3)c([C@@H](F)c3ccc(C(F)(F)F)cc3)c(C3CCCCC3)c2[C@@H](O)C1` ), measured Growth Rate is 0.38
